- experiment_notes: Quantitative High-Throughput drug screen in 47 multiple myeloma cell lines against the NCATS MIPE library collection: H1112_PLB cell viability assay (AID 1918967; also: nearly all actives have a fitted effect of over 30% in size)
- test_parameters: H1112 myeloma cells viability, ATP luminescence, 48 h; series mostly up to 45.8 µM
- From the text: PI: Beverly A. Mock Ph.D. Laboratory of Cancer Biology and Genetics, Center for Cancer Research, National Cancer Institute, National Institute of Health, Bethesda, Maryland […] 5; Detector; 425V; Luminescence; Viewlux PerkinElmer. […] 1. […] Briefly, the corresponding myeloma cell lines were screened in 1,536-well plates with 500 cells, 5-uL per well for inhibition of cell viability (assessed by measuring ATP levels with CellTiterGlo). […]
Inconclusive results are not listed. Calls of active or inactive are those of the source. Calls follow the shape of the dose curve; as a rule, active = well fitted cell-killing curve with a large enough effect; inconclusive = small, poorly fitted or top-dose-only effect, or effect the other way; inactive = no such curve, though single readings can be large or run the other way.
Classes used: active, inactive

compound	answer_label
C[C@@H]1[C@@H](C(=O)C[C@H]2O[C@@H]3O[C@]4(C)CC[C@@H]5[C@H](C)CC[C@@H]([C@H]2C)[C@@]35OO4)O[C@@H]2O[C@]3(C)CC[C@H]4[C@H](C)CC[C@@H]1[C@@]24OO3	active
NCC1(CC(=O)O)CCCCC1	inactive
CNCC(O)c1ccc(O)cc1 (configuration not stated)	inactive
C#CCN(C)[C@H](C)Cc1ccccc1	inactive
Cc1cc(SCc2sc(-c3ccc(C(F)(F)F)c(F)c3)nc2C)ccc1OCC(=O)O	active
Fc1ccc(C(OCCN2CCN(CCCc3ccccc3)CC2)c2ccc(F)cc2)cc1	active
O=C(O)C(=O)c1cn(Cc2ccccc2)c2ccc(-c3ccc(OC(F)(F)F)cc3)cc12	active
CNC(=O)N1N=C(c2ccc(N)cc2)c2cc3c(cc2CC1C)OCO3 (configuration not stated)	inactive
Cc1sc2c(c1C)C(c1ccc(Cl)cc1)=N[C@@H](CC(=O)OC(C)(C)C)c1nnc(C)n1-2	active
CC(O)(CS(=O)(=O)c1ccc(F)cc1)C(=O)Nc1ccc(C#N)c(C(F)(F)F)c1 (configuration not stated)	active
CN(C)CCc1ccc(O)cc1	inactive
CN(C)CCN(C)CCc1ccc(Cl)c(Cl)c1	inactive

====

- test_parameters: Ebola virus entry assay, blue channel fluorescence
Activity calls are given as the source filed them. Calls follow the shape of the full dose curve.
quantity_name: AC50

>>> df
                                   compound            result
0  CN1CCC[C@@H]1CCO[C@](C)(c1ccccc1)c1ccc(Cl)cc1  3.55 µM (active)
1  CC(C)n1c(/C=C/[C@@H](O)C[C@@H](O)CC(=O)O)c(-c2ccc(F)cc2)c2ccccc21          inactive
2  Cc1cnc(C(=O)NCCc2ccc(S(=O)(=O)NC(=O)NC3CCCCC3)cc2)cn1          inactive
3  CCCCCOC(=O)Nc1nc(=O)n([C@@H]2O[C@H](C)[C@@H](O)[C@H]2O)cc1F          inactive
4            Oc1cn2c(n1)Nc1ccc(Cl)c(Cl)c1C2          inactive

====

- experiment_notes: qHTS of pediatric cancer cell lines to identify multiple opportunities for drug repurposing: Primary screen for SK-N-MC cells (AID 1347093); also: potency is read from the fitted curve at half-maximal effect
- test_parameters: SK-N-MC viability, CellTiter-Glo luminescence, 48 h; series mostly up to 46 µM
Results filed as inconclusive are left out. Activity calls are given as the source filed them. The call rests on the fitted dose curve; in most records, active means well fitted cell-killing curve with a large enough effect; inconclusive means small, poorly fitted or top-dose-only effect; inactive means no such curve, though single readings can be large or run the other way.
quantity_name: Potency

In [3]: df
Out[3]:
                                    molecule            result
 0                          CC[N+](CC)(CC)CC          inactive
 1  COC[C@H]1OC(=O)c2coc3c2[C@@]1(C)C1=C(C3=O)C2CCC(=O)[C@@]2(C)C[C@H]1OC(C)=O (some centres not stated)  1.05 µM (active)
 2                     CC(C)(N)Cc1ccc(Cl)cc1          inactive
 3                       NCC1(CC(=O)O)CCCCC1          inactive
 4  C=CCN1CC[C@]23c4c5ccc(O)c4O[C@H]2C(=O)CC[C@@]3(O)[C@H]1C5          inactive
 5  CC(C)(C)NCC(O)c1cc(Cl)c(N)c(Cl)c1 (configuration not stated)          inactive
 6  CC[C@@H](CO)NC(=O)[C@@H]1C=C2c3cccc4c3c(cn4C)C[C@H]2N(C)C1          inactive
 7          CCOP(=S)(OCC)Oc1cc(C)nc(C(C)C)n1          inactive
 8    CCCC1CCCCN1 (configuration not stated)          inactive
 9  CC(C)CC(N(C)C)C1(c2ccc(Cl)cc2)CCC1 (configuration not stated)          inactive
10  CCC(C(N)=O)N1CCCC1=O (configuration not stated)          inactive
11              Oc1cc(Cl)ccc1Oc1ccc(Cl)cc1Cl  27.9 µM (active)
12   C#CCOC(C(=O)OCCN(C)C)(c1ccccc1)c1ccccc1          inactive
13  CO[C@]12CC[C@@]3(C[C@@H]1[C@](C)(O)C(C)(C)C)[C@@H]1Cc4ccc(O)c5c4[C@@]3(CCN1CC1CC1)[C@H]2O5  30.3 µM (active)
14  CCN(CC)C(=O)N[C@@H]1C=C2c3cccc4[nH]cc(c34)C[C@@H]2N(C)C1          inactive
15       CCCN1CCC[C@@H]2Cc3nc(N)ncc3C[C@H]21          inactive
16  CNC(=O)N1N=C(c2ccc(N)cc2)c2cc3c(cc2CC1C)OCO3 (configuration not stated)  9.35 µM (active)
